- study target: Adenosine receptor A2a (Homo sapiens)
- Sequence (P29274 whole entry): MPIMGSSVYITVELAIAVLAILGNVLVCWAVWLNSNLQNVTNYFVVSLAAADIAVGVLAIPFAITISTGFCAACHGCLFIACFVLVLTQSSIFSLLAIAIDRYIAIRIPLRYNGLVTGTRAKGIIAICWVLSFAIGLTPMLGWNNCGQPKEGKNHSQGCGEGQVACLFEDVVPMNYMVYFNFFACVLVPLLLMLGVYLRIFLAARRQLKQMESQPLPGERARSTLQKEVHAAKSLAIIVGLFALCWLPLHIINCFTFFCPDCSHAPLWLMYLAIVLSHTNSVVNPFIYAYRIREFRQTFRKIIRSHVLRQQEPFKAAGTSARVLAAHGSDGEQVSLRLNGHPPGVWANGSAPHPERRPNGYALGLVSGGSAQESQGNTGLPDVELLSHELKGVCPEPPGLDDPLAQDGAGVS
The compounds listed here are annotated with their Ki.
observed property: Ki

>>> measured("CNC(=O)C12C[C@@H]1[C@@H](n1cnc3c(NCc4cccc(Cl)c4)nc(I)nc31)[C@H](O)[C@@H]2O (single isomer, unassigned)")
"> 10 µM"
>>> measured("CNC(=O)C12C[C@@H]1[C@@H](n1cnc3c(NCc4cccc(Cl)c4)nc(SC)nc31)[C@H](O)[C@@H]2O (single isomer, unassigned)")
"10 µM"

* * *

- study target: Adenosine receptor A2a (Rattus norvegicus, UniProt P30543)
- Sequence (P30543 whole entry): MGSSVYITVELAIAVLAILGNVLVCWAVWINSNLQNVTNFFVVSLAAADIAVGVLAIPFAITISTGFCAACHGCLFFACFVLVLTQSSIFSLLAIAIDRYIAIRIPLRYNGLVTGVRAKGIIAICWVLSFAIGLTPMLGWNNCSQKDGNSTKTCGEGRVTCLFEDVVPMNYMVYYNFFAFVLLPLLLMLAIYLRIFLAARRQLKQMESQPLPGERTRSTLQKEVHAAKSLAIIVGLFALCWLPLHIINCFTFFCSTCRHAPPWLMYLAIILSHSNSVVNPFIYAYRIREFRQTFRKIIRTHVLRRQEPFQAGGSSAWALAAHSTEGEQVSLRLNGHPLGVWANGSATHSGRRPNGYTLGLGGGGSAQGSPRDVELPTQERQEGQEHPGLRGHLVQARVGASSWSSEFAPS
pKi: −log10 of the molar value.
observed property: pKi

>>> measured("CNC(=O)[C@@]12C[C@@H]1[C@@H](n1cnc3c(NC)nc(Cl)nc31)[C@H](O)[C@@H]2O")
"< 5.00"
